Value source: paper PMC6835155

Measured TM Shift LIMK1 (K) values are reported for all entries that follow.
Target: LIMK1KD (Homo sapiens)
Construct: His6 (N, cleaved yes); made in house; host or cells: baculovirus; Sf9 for virus, TriEx insect cells for expression
Sequence (P53667 330-637): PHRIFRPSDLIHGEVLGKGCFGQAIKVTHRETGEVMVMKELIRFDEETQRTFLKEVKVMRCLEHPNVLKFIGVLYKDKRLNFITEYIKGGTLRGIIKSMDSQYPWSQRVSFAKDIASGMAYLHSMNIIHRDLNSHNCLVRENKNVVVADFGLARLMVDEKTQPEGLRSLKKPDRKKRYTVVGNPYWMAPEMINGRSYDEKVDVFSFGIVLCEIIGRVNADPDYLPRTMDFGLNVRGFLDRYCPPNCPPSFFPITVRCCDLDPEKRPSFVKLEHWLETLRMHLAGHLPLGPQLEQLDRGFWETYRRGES
Assay: Differential (dynamic) scanning fluorimetry (DSF) assay, LIMK1KD
Type: binding
Details: 2 µM LIMK1KD, compound 10 µM, single shot

Molecule	Measurement Unit	TM Shift LIMK1 (K)
Cc1ccc(NC(=O)c2cccc(N(C)C)c2)cc1NC(=O)c1ccc(O)cc1	K	0.7
Nc1cccc(-c2cc3c(Oc4cccc(O)c4)ncnc3[nH]2)c1	K	5.2
CCC[C@H](NC(=O)/C(C#N)=C/c1cccc(Br)n1)c1ccccc1 [Degrasyn (WP1130), Degrasyn]	K	-1.0
C[C@]1(O)C[C@@H](c2nc(-c3ccc4ccc(-c5ccccc5)nc4c3)c3c(N)nccn32)C1	K	0.8
COc1ccc(Cl)c(Nc2nc3ccccc3nc2NS(=O)(=O)c2cccc(NC(=O)C(C)(C)N)c2)c1	K	-0.1
CN1CCN(c2cccc(Nc3nc4c(-c5ccc(S(C)(=O)=O)cc5)cccn4n3)c2)CC1	K	1.0
Cc1cnc(Nc2ccc(N3CCN(C)CC3)cc2)nc1Nc1cccc(S(=O)(=O)NC(C)(C)C)c1	K	2.4
COc1ccc(F)c(F)c1C(=O)c1cnc(NC2CCN(S(C)(=O)=O)CC2)nc1N	K	0.1
O=C(NCc1cccc(O)c1)Nc1nc(-c2ccncc2)cs1	K	1.4
O=c1cc(N2CCOCC2)oc2c1ccc1ccccc12	K	-0.7
C#Cc1cccc(Nc2ncnc3cc(OCCOC)c(OCCO)cc23)c1	K	0.1
Cc1c(C(=O)N2CCOc3ccc(-c4ccc(N)nc4)cc3C2)ccc(S(C)(=O)=O)c1F	K	-1.4
Cc1cc(Nc2cc(CN3CCOCC3)c3nc(C)c(Cc4ccc(Cl)cc4F)n3n2)n[nH]1	K	5.4
O=C(c1ccc(Nc2nccc(-c3cc4ccccc4s3)n2)cc1)N1CCC(N2CCCC2)CC1	K	7.0
CC(C)(C)Cn1c(N)nc2ccc(-c3[nH]c(C(C)(C)C)nc3-c3ccc(F)cc3)nc21	K	2.1
O=C1NC(=O)C(c2ccccc2[N+](=O)[O-])=C1Nc1ccc(O)c(Cl)c1	K	1.7
CN(c1ncccc1CNc1nc(Nc2ccc3c(c2)CC(=O)N3)ncc1C(F)(F)F)S(C)(=O)=O [PF-00562271]	K	1.1
C=CC(=O)Nc1cccc(Sc2nc(Nc3ccc(N4CCN(C)CC4)cc3)ncc2Cl)c1	K	3.1
CCn1c(=O)c(-c2cc[nH]n2)cc2c(C)nc(N)nc21 [Voxtalisib]	K	0.2
O=C(c1cccc(Cl)c1F)N1CCN(Cc2cccc(Nc3nccs3)n2)CC1	K	1.0
COc1ccc(-c2cc3c(C)nc(N)nc3n([C@H]3CC[C@H](OCCO)CC3)c2=O)cn1	K	0.9
O=C(Cc1ccc(-c2ccc(OCCN3CCOCC3)cc2)cn1)NCc1ccccc1	K	1.7
N#Cc1c(O)c2c(-c3ccc(-c4ccccc4O)cc3)csc2[nH]c1=O	K	0.9
Cc1ccccc1-n1c(Cn2ncc3c(N)ncnc32)nc2cccc(C)c2c1=O	K	0.6
Nc1ncnc2c1c(-c1cnc3[nH]ccc3c1)nn2C1CCCC1	K	3.6
CN(c1ncccc1CNc1nc(Nc2ccc3c(c2)CC(=O)N3)ncc1C(F)(F)F)S(C)(=O)=O [PF-562271]	K	-0.5
COc1cc2ncc(-c3ccccc3)nc2cc1OC	K	0.0
CC[C@H](Nc1ncnc2[nH]cnc12)c1nc2cccc(F)c2c(=O)n1-c1ccccc1	K	0.5
Cc1ccc(NC(=O)c2cccc(C(C)(C)C#N)c2)cc1Nc1ccc2ncn(C)c(=O)c2c1	K	0.3
Cc1cc(C(C)Nc2ccccc2)c2nc(N3CCOCC3)cc(=O)n2c1 (stereo not shown)	K	0.1
Cc1cc(F)c(Nc2ncnc3cc(OCc4ccccc4)ccc23)cc1O.Cl [ZM 323881 HCl]	K	0.0
NCC(=O)Nc1ccc(-n2nc(C(F)(F)F)cc2-c2ccc3c(ccc4ccccc43)c2)cc1	K	-1.2
Cc1ccc(C(=O)Nc2cccc(C(F)(F)F)c2)cc1Nc1nc(-c2cccnc2)nc2c1cnn2C	K	-0.2
C=CC(=O)Nc1cccc(Nc2nc(Nc3ccc(Oc4ccnc(C(=O)NC)c4)cc3)ncc2F)c1	K	1.6
